The measurements presented in this section are drawn from PubChem BioAssay AID2060886.

Quick list: viability, T/C per entry.
- Test system: 653999-131-R-J2-PDC complex spheroids, growth inhibition;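 note: spheroids exposed to the agents for seven days before the readout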
- Experiment summary: Anticancer human tumor 653999-131-R-J2-PDC patient-derived lung adenocarcinoma cell line growth inhibition [RAS]
- Condition details: second compound 0.00316 µM; first compound 0.1 µM; stronger effect = lower value
Reply numerically in %, unit not repeated.

NC1c2ccccc2OC12CCN(c1cnc3c(N4CCCc5ncccc54)n[nH]c3n1)CC2 (stereo not given) + C=CC(=O)N1CCN(c2nc(OCC3CCCN3C)nc3c(F)c(-c4nc(N)cc(C)c4C(F)(F)F)c(Cl)cc23)C(C)C1 = 70.1
CC1(O)CCCC1n1c(=O)c(C(F)F)cc2cnc(NC3CCN(S(C)(=O)=O)CC3)nc21 (stereo not given) + C=CC(=O)N1CCN(c2nc(OCC3CCCN3C)nc3c(F)c(-c4nc(N)cc(C)c4C(F)(F)F)c(Cl)cc23)C(C)C1 = 63.4
C[C@@H](NC(=O)c1ncnc(N)c1Cl)c1ncc(C(=O)Nc2cc(C(F)(F)F)c(Cl)cn2)s1 + C=CC(=O)N1CCN(c2nc(OCC3CCCN3C)nc3c(F)c(-c4nc(N)cc(C)c4C(F)(F)F)c(Cl)cc23)C(C)C1 = 85

Looking for the measured viability, T/C of CC(C)NCC(C(=O)N1CCN(c2ncnc3c2C(C)CC3O)CC1)c1ccc(Cl)cc1 (stereo not given) + C=CC(=O)N1CCN(c2nc(OCC3CCCN3C)nc3c(F)c(-c4nc(N)cc(C)c4C(F)(F)F)c(Cl)cc23)C(C)C1 , can you help?
104

What value of measured viability, T/C is listed for O=C(c1ccc(F)c(F)c1Nc1ccc(I)cc1F)N1CC(O)([C@@H]2CCCCN2)C1 + C=CC(=O)N1CCN(c2nc(OCC3CCCN3C)nc3c(F)c(-c4nc(N)cc(C)c4C(F)(F)F)c(Cl)cc23)C(C)C1 ?
53.6

Could you share which viability, T/C value was measured for CCN1CCN(Cc2ccc(Nc3ncc(F)c(-c4cc(F)c5nc(C)n(C(C)C)c5c4)n3)nc2)CC1 + C=CC(=O)N1CCN(c2nc(OCC3CCCN3C)nc3c(F)c(-c4nc(N)cc(C)c4C(F)(F)F)c(Cl)cc23)C(C)C1 ?
61.7

Which viability, T/C is reported for this compound? CC(=O)OC12COC1CC(O)C1(C)C(=O)C(O)C3=C(C)C(OC(=O)C(O)C(NC(=O)OC(C)(C)C)c4ccccc4)CC(O)(C(OC(=O)c4ccccc4)C21)C3(C)C (stereo not given) + C=CC(=O)N1CCN(c2nc(OCC3CCCN3C)nc3c(F)c(-c4nc(N)cc(C)c4C(F)(F)F)c(Cl)cc23)C(C)C1
48.1

Suppose we examine the compound CC(Nc1ccc2c(c1)OCCn1cc(N3C(=O)OCC3C(F)F)nc1-2)C(N)=O (stereo not given) + C=CC(=O)N1CCN(c2nc(OCC3CCCN3C)nc3c(F)c(-c4nc(N)cc(C)c4C(F)(F)F)c(Cl)cc23)C(C)C1 ; what viability, T/C value has been reported?
75.6

What does the record list as viability, T/C for CCC(CC)c1cc(NC2CCC(N)C2)n2nccc2n1 (stereo not given) + C=CC(=O)N1CCN(c2nc(OCC3CCCN3C)nc3c(F)c(-c4nc(N)cc(C)c4C(F)(F)F)c(Cl)cc23)C(C)C1 ?
109

Which viability, T/C value belongs to Cc1nc(N2CCC3(CC2)COC(C)C3N)c(CO)nc1Sc1ccnc(N)c1Cl (stereo not given) + C=CC(=O)N1CCN(c2nc(OCC3CCCN3C)nc3c(F)c(-c4nc(N)cc(C)c4C(F)(F)F)c(Cl)cc23)C(C)C1 ?
76.7
